- TEST SYSTEM: Factor X, P00742
- Sequence (P00742 whole entry, looked up): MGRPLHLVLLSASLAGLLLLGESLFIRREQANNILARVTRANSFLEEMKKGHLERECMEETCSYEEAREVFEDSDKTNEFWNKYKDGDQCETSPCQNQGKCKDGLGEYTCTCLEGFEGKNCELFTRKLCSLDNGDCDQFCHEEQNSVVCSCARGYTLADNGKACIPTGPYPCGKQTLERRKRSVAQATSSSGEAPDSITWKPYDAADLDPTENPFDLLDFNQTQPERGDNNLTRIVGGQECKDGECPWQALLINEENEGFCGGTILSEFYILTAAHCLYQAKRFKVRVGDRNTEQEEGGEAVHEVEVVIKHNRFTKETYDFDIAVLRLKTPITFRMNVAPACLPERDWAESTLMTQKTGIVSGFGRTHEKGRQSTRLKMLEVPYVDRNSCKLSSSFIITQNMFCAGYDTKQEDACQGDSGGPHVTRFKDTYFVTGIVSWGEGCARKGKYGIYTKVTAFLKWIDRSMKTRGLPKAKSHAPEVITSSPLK
MEASUREMENT KIND: kcat/KM (M⁻¹ s⁻¹)

FIXa R318Y/R338E/T412A (protein) chain 1: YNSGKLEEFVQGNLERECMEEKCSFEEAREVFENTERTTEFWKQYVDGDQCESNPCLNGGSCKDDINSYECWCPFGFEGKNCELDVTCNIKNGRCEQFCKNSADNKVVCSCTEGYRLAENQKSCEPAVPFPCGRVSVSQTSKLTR chain 2: VVGGEDAKPGQFPWQVVLNGKVDAFCGGSIVNEKWIVTAAHCVETGVKITVVAGEHNIEETEHTEQKRNVIRIIPHHNYNAAINKYNHDIALLELDEPLVLNSYVTPICIADKEYTNIFLKFGSGYVSGWGRVFHKGYSALVLQYLRVPLVDRATCLESTKFTIYNNMFCAGFHEGGRDSCQGDSGGPHVTEVEGTSFLTGIISWGEECAMKGKYGIYTKVSRYVNWIKEKAKLT
3e+08
